# Tested on: Klebsiella pneumoniae
# assay_protocol: Antibacterial activity against Klebsiella pneumoniae ATCC 13883 using 100 uL of test compound after 24 hrs by agar well diffusion method
# Assay type: functional
Everything with diameter of the inhibition zone (DIZ) lower than 20 mm is NO; everything else, including exactly 20 mm, is YES.

Reported diameter of the inhibition zone (DIZ) reaches at least 20 mm for CC(Cc1cn(CC(=O)c2ccc(S(=O)(=O)c3ccccc3)cc2)nn1)(OCc1cn(CC(=O)c2ccc(S(=O)(=O)c3ccccc3)cc2)nn1)c1ccc(S(=O)(=O)c2ccccc2)cc1 (configuration not stated) ?
NO

Please indicate if the recorded diameter of the inhibition zone (DIZ) for O=S(=O)(c1ccccc1)c1ccc(C(Cc2cn(Cc3ccccc3)nn2)OCc2cn(Cc3ccccc3)nn2)cc1 (configuration not stated) meets or exceeds 20 mm.
NO

# bool: diameter of the inhibition zone (DIZ) of O=C(Cn1cc(COC(Cc2cn(CC(=O)c3ccc(F)cc3)nn2)c2ccc(S(=O)(=O)c3ccccc3)cc2)nn1)c1ccc(F)cc1 (configuration not stated) >= 20 mm
NO

Can CC(Cc1cn(CC(=O)c2ccc(F)cc2)nn1)(OCc1cn(CC(=O)c2ccc(F)cc2)nn1)c1ccc(S(=O)(=O)c2ccccc2)cc1 (configuration not stated) be said to have diameter of the inhibition zone (DIZ) at or above 20 mm?
YES

Check this compound for diameter of the inhibition zone (DIZ) at or above 20 mm: CC(Cc1cn(Cc2ccccc2)nn1)(OCc1cn(Cc2ccccc2)nn1)c1ccc(S(=O)(=O)c2ccccc2)cc1 (configuration not stated)
NO

Tell me whether diameter of the inhibition zone (DIZ) is at least 20 mm here: O=S(=O)(c1ccccc1)c1ccc(C(O)Cc2cn(Cc3ccccc3)nn2)cc1 (configuration not stated)
YES

Hi, just wondering whether O=C(Cn1cc(COC(Cc2cn(CC(=O)c3ccccc3)nn2)c2ccc(S(=O)(=O)c3ccccc3)cc2)nn1)c1ccccc1 (configuration not stated) shows diameter of the inhibition zone (DIZ) of 20 mm or higher.
NO
